Data credit: PubChem BioAssay (NCATS)

- System: TAB113
- testDetails: qHTS profiling for inhibitors of Plasmodium falciparum proliferation (AID 504749); note: nearly all actives have a fitted effect of over 60% in size
- details: P. falciparum in erythrocytes, SYBR Green DNA, 72 h; series mostly up to 28.7 µM
Records with an inconclusive call do not appear. Activity calls are given as the source filed them. Calls come from the whole dose curve; as a rule, active = well fitted inhibition curve with a large enough effect; inconclusive = small, poorly fitted or top-dose-only effect; inactive = flat fitted curve, though single readings scatter.
Valid outcomes are listed here; reply with one: active, inactive

Recorded results for 2 molecules are shown here.
molecule: C/C=C\C[C@H](C)[C@H](O)[C@H]1C(=O)N[C@@H](CC)C(=O)N(C)CC(=O)N(C)[C@@H](CC(C)C)C(=O)N[C@@H](C(C)C)C(=O)N(C)[C@@H](CC(C)C)C(=O)N[C@@H](C)C(=O)N[C@@H](C)C(=O)N(C)[C@@H](CC(C)C)C(=O)N(C)[C@@H](CC(C)C)C(=O)N(C)[C@@H](C(C)C)C(=O)N1C
group: active

molecule: C[C@H]1[C@@H](OC(=O)CCC(=O)O)OC2OC3(C)CC[C@H]4[C@H](C)CC[C@@H]1[C@@]24OO3 (stereo partly specified)
group: active

Challenge: Would you mind telling me which call this test gave C[n+]1c2cc(N)ccc2cc2ccc(N)cc21 ?
Response given: active

Challenge: Would you mind telling me which call this test gave NC[C@@H]1O[C@H](OC2[C@@H](CO)O[C@@H](OC3[C@H](O)[C@H](N)C[C@H](N)[C@H]3OC3O[C@H](CO)[C@@H](O)[C@H](O)[C@@H]3N)[C@H]2O)C(N)[C@H](O)[C@@H]1O (stereo partly specified) ?
Response given: inactive

Challenge: Would you mind telling me which call this test gave C=C[C@@]1(C)C[C@H](OC(=O)CSC(C)(C)CNC(=O)[C@@H](N)C(C)C)[C@@]2(C)C(C)CC[C@@]3(CCC(=O)[C@@H]32)[C@H](C)[C@H]1O (stereo partly specified) ?
Response given: active

Challenge: Would you mind telling me which call this test gave CC(=O)NC1[C@H](O)C[C@@](O)(C(=O)O)O[C@H]1[C@H](O)[C@H](O)CO (stereo partly specified) ?
Response given: inactive
